system: guinea pig distal colon; assay: fecal pellet propulsion motility assay in isolated distal colon (GIMM); conditions: bath (serosal) application, 20 min; extract 1 g/100 mL Krebs; PTLC1 15 mg, PTLC5 3.8 mg/100 mL; RS-56812 50 nmol/L, cisapride 100 nmol/L, CJ-033466 300 nmol/L, granisetron 1 μmol/L, ondansetron 0.5 μmol/L, GR-113808 5 μmol/L
Counter-ions that a name gives are not always drawn.
parameter: pellet propulsion, percent of normalized baseline pellet velocity (%)
One number for each entry, in %.

Take a look at these entries with their results.
> print(dat)
                                   compound  unitannotation  recordedvalue
1  CN1C2CCCC1CC(NC(=O)c1nn(C)c3ccccc13)C2.Cl (centres unmarked) [granisetron, granisetron hydrochloride]               %          101.4
2  Cn1cc(C(=O)C(=O)NC2CN3CCC2CC3)c2ccccc21 (centres unmarked)               %          103.3
3  Cc1cn2c(N)c(Cl)cc(C(=O)NCC3CCN(CC(C)C)CC3)c2n1               %          102.8

# lookup: pellet propulsion, percent of normalized baseline pellet velocity of Cc1nccn1CC1CCc2c(c3ccccc3n2C)C1=O (centres unmarked) [ondansetron, ondansetron hydrochloride]
111.3
